# Test system: 475296-252-R-J1-PDC spheroid viability
# PROTOCOL_NOTES: Anticancer human tumor 475296-252-R-J1-PDC patient-derived rectal carcinoma cell line growth inhibition [PI3K]
# ASSAY_CONTEXT: curve of first compound; second compound 0.0316 µM; spheroids with HUVEC and MSC
MEASUREMENT_TYPE: IC50

Reference set (5 entries):
| COMPOUND | MEASUREMENT_TYPE | ASSAY_VALUE |
| --- | --- | --- |
| Cn1ncnc1[C@H]1c2n[nH]c(=O)c3cc(F)cc(c23)N[C@@H]1c1ccc(F)cc1 + CC(Nc1ccc2c(c1)OCCn1cc(N3C(=O)OCC3C(F)F)nc1-2)C(N)=O | IC50 | > 0.1 µM |
| CC(C)NCC(C(=O)N1CCN(c2ncnc3c2C(C)CC3O)CC1)c1ccc(Cl)cc1 (stereo unspecified) + Cc1nc(NC(=O)N2CCCC2C(N)=O)sc1-c1ccnc(C(C)(C)C(F)(F)F)c1 | IC50 | > 10 µM |
| C[C@@H](NC(=O)c1ncnc(N)c1Cl)c1ncc(C(=O)Nc2cc(C(F)(F)F)c(Cl)cn2)s1 + COc1c(OCCCN2CCOCC2)ccc2c3n(c(=NC(=O)c4cnc(N)nc4)nc12)CCN3 | IC50 | > 10 µM |
| CCN1CCN(Cc2ccc(Nc3ncc(F)c(-c4cc(F)c5nc(C)n(C(C)C)c5c4)n3)nc2)CC1 + Cc1nc(NC(=O)N2CCCC2C(N)=O)sc1-c1ccnc(C(C)(C)C(F)(F)F)c1 | IC50 | > 1 µM |
| CCN1CCN(Cc2ccc(Nc3ncc(F)c(-c4cc(F)c5nc(C)n(C(C)C)c5c4)n3)nc2)CC1 + CC(Nc1ccc2c(c1)OCCn1cc(N3C(=O)OCC3C(F)F)nc1-2)C(N)=O | IC50 | > 1 µM |

# ---- query compound ----
For the compound shown here, CNC(=O)c1ccc(N2C(=S)N(c3ccc(C#N)c(C(F)(F)F)c3)C(=O)C2(C)C)cc1F + CC(Nc1ccc2c(c1)OCCn1cc(N3C(=O)OCC3C(F)F)nc1-2)C(N)=O , give the reported IC50.
> 10 µM

* * *

# Test system: 475296-252-R-J1-PDC spheroid viability
# PROTOCOL_NOTES: Anticancer human tumor 475296-252-R-J1-PDC cell line growth inhibition [PI3K];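 also: spheroids exposed to agents for seven days before readout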
# ASSAY_CONTEXT: second compound 0.0316 µM; first compound 0.949 µM; stronger effect = lower value; spheroids with HUVEC and MSC
MEASUREMENT_TYPE: viability, T/C (%)
Your answer should be a plain number; it is taken to be in %.

Reference set (3 entries):
| COMPOUND | UNIT_ABBREV | viability, T/C |
| --- | --- | --- |
| Cn1cnc2c(F)c(Nc3ccc(Br)cc3Cl)c(C(=O)NOCCO)cc21 + Cc1nc(NC(=O)N2CCCC2C(N)=O)sc1-c1ccnc(C(C)(C)C(F)(F)F)c1 | % | 76.6 |
| Cn1cnc2c(F)c(Nc3ccc(Br)cc3Cl)c(C(=O)NOCCO)cc21 + CC(Nc1ccc2c(c1)OCCn1cc(N3C(=O)OCC3C(F)F)nc1-2)C(N)=O | % | 67.8 |
| Cn1cnc2c(F)c(Nc3ccc(Br)cc3Cl)c(C(=O)NOCCO)cc21 + CC(Nc1ncnc2nc[nH]c12)c1cc2cccc(Cl)c2c(=O)n1-c1ccccc1 | % | 63.1 |

# ---- query compound ----
For the compound shown here, Cn1cnc2c(F)c(Nc3ccc(Br)cc3Cl)c(C(=O)NOCCO)cc21 + COc1c(OCCCN2CCOCC2)ccc2c3n(c(=NC(=O)c4cnc(N)nc4)nc12)CCN3 , give the reported viability, T/C.
37

* * *

Each item that follows carries a reported pIC50.
# Test system: 475296-252-R-J1-PDC spheroid viability
# PROTOCOL_NOTES: Anticancer human tumor 475296-252-R-J1-PDC cell line growth inhibition [PI3K];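 also: spheroids exposed to agents for seven days before readout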
# ASSAY_CONTEXT: curve of first compound; second compound 10 µM; spheroids with HUVEC and MSC
pIC50: −log10 of the molar value.

Reference set (3 entries):
| COMPOUND | SYSTEM_NAME | ASSAY_VALUE |
| --- | --- | --- |
| CC1(C)CCC(CN2CCN(c3ccc(C(=O)NS(=O)(=O)c4ccc(NCC5CCOCC5)c([N+](=O)[O-])c4)c(Oc4cnc5[nH]ccc5c4)c3)CC2)=C(c2ccc(Cl)cc2)C1 + Cc1nc(NC(=O)N2CCCC2C(N)=O)sc1-c1ccnc(C(C)(C)C(F)(F)F)c1 | 475296-252-R-J1-PDC spheroid viability | < 5.00 |
| Cn1ncc(Cl)c1-c1cc(C(=O)NC(CN)Cc2cccc(F)c2)sc1Cl (stereo unspecified) + CC(Nc1ncnc2nc[nH]c12)c1cc2cccc(Cl)c2c(=O)n1-c1ccccc1 | 475296-252-R-J1-PDC spheroid viability | < 5.00 |
| Cn1cnc2c(F)c(Nc3ccc(Br)cc3Cl)c(C(=O)NOCCO)cc21 + Cc1nc(NC(=O)N2CCCC2C(N)=O)sc1-c1ccnc(C(C)(C)C(F)(F)F)c1 | 475296-252-R-J1-PDC spheroid viability | 7.11 |

For the compound shown here, Cn1nccc1Nc1nccc(-c2ccn(C(CO)c3ccc(Cl)c(F)c3)c(=O)c2)n1 (stereo unspecified) + Cc1nc(NC(=O)N2CCCC2C(N)=O)sc1-c1ccnc(C(C)(C)C(F)(F)F)c1 , give the reported pIC50.
5.84

Proceed to C=CC(=O)N1CCN(c2nc(=O)n(-c3c(C)ccnc3C(C)C)c3nc(-c4c(O)cccc4F)c(F)cc23)C(C)C1 (stereo unspecified) + CC(Nc1ncnc2nc[nH]c12)c1cc2cccc(Cl)c2c(=O)n1-c1ccccc1
< 5.00

Proceed to CC1(C)CCC(CN2CCN(c3ccc(C(=O)NS(=O)(=O)c4ccc(NCC5CCOCC5)c([N+](=O)[O-])c4)c(Oc4cnc5[nH]ccc5c4)c3)CC2)=C(c2ccc(Cl)cc2)C1 + CC(Nc1ncnc2nc[nH]c12)c1cc2cccc(Cl)c2c(=O)n1-c1ccccc1
< 5.00

* * *

# Tested on: 475296-252-R-J1-PDC spheroid viability
# PROTOCOL_NOTES: Anticancer human tumor 475296-252-R-J1-PDC cell line growth inhibition [PI3K];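 also: spheroids exposed to agents for seven days before readout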
# ASSAY_CONTEXT: second compound 1 µM; first compound 0.0316 µM; stronger effect = lower value; spheroids with HUVEC and MSC
Each item that follows carries a reported viability, T/C.
Your answer should be a plain number; it is taken to be in %.

Reference set (5 entries):
| COMPOUND | SYSTEM_NAME | UNIT_ABBREV | ASSAY_VALUE |
| --- | --- | --- | --- |
| CC(C)NCC(C(=O)N1CCN(c2ncnc3c2C(C)CC3O)CC1)c1ccc(Cl)cc1 (stereo not drawn) + Cc1nc(NC(=O)N2CCCC2C(N)=O)sc1-c1ccnc(C(C)(C)C(F)(F)F)c1 | 475296-252-R-J1-PDC spheroid viability | % | 85 |
| C=CC(=O)N1CCN(c2nc(=O)n(-c3c(C)ccnc3C(C)C)c3nc(-c4c(O)cccc4F)c(F)cc23)C(C)C1 (stereo not drawn) + Cc1nc(NC(=O)N2CCCC2C(N)=O)sc1-c1ccnc(C(C)(C)C(F)(F)F)c1 | 475296-252-R-J1-PDC spheroid viability | % | 88 |
| CC(C)n1nc(-c2ccc3oc(N)nc3c2)c2c(N)ncnc21 + Cc1nc(NC(=O)N2CCCC2C(N)=O)sc1-c1ccnc(C(C)(C)C(F)(F)F)c1 | 475296-252-R-J1-PDC spheroid viability | % | 70.2 |
| CC(=O)c1c(C)c2cnc(Nc3ccc(N4CCNCC4)cn3)nc2n(C2CCCC2)c1=O + CC(Nc1ccc2c(c1)OCCn1cc(N3C(=O)OCC3C(F)F)nc1-2)C(N)=O | 475296-252-R-J1-PDC spheroid viability | % | 93.2 |
| CC(C)n1nc(-c2ccc3oc(N)nc3c2)c2c(N)ncnc21 + CC(Nc1ccc2c(c1)OCCn1cc(N3C(=O)OCC3C(F)F)nc1-2)C(N)=O | 475296-252-R-J1-PDC spheroid viability | % | 71.1 |

Lab note: need viability, T/C with 475296-252-R-J1-PDC spheroid viability for entry CC1(C)CCC(Nc2ncc(C(F)(F)F)c(-c3c[nH]c4c(P(C)(C)=O)c(C#N)ccc34)n2)CN1 (stereo not drawn) + Cc1nc(NC(=O)N2CCCC2C(N)=O)sc1-c1ccnc(C(C)(C)C(F)(F)F)c1 , please look it up.
100

Proceed to CCCS(=O)(=O)Nc1ccc(F)c(C(=O)c2c[nH]c3ncc(-c4ccc(Cl)cc4)cc23)c1F + COc1c(OCCCN2CCOCC2)ccc2c3n(c(=NC(=O)c4cnc(N)nc4)nc12)CCN3
62.5

Proceed to CC(C)NCC(C(=O)N1CCN(c2ncnc3c2C(C)CC3O)CC1)c1ccc(Cl)cc1 (stereo not drawn) + COc1c(OCCCN2CCOCC2)ccc2c3n(c(=NC(=O)c4cnc(N)nc4)nc12)CCN3
60.4
